Listed here are molecules together with their documented TGI.
- Tested on: SW-620 colon
- ASSAY_NOTES: NCI tumour cell line growth inhibition, 48 h

CCCCOc1ccc(S(=O)(=O)/N=C(\NO)Nc2ccc(Cl)cc2)cc1
40.3 µM

Query molecule follows.
Task item: Answer with the recorded TGI of O=[N+]([O-])c1ccc2nc(-c3ccc(Cl)cc3)[nH]c2c1 only.
Reply: > 100 µM

====

- Tested on: SN12C renal
- ASSAY_NOTES: NCI tumour cell line growth inhibition, 48 h; in the data active = GI50 below about 0.43 µM; inactive = the rest
The reply should be one of these categories: T (active), F (inactive)

C[C@@H]1Cc2c(ccc3[nH]ncc23)[C@@H](c2ccc(NC3CN(CCCF)C3)cn2)N1CC(F)(F)F
F
Cc1nc2sc(C(=O)Nc3ccccc3)c(N)c2cc1C(=O)c1ccccc1
F
Cc1c2ccccc2c(C)n2c1nc1cc(Cl)c(Cl)cc12
F
CC(=O)/C(=C/N1CCN(C(=O)c2ccco2)C1=S)C(=O)c1ccccc1
F
CNc1nc(-c2ccc3c(N)n[nH]c3c2)cc(N2C[C@@H](C(=O)NC3CCCCC3)CC[C@H]2C)n1
F

Task item: What call does the record list for C=Cc1cc(OC)c2c(c1)c(=O)oc1c2cc(OC)c2c(O)ccc(C3OC(C(C)O)C(O)C3O)c21 (stereo not drawn) ?
Reply: T

Task item: What call does the record list for N=C1C=C(N)C(=O)c2ccccc21 ?
Reply: T

Task item: What call does the record list for Cc1cc2nc(-c3ccc(O)c(O)c3)n(Cc3ccc(O)c(O)c3)c2cc1C ?
Reply: F
